Assay: amyloid nucleation score (Sup35N fusion, yeast selection) (log enrichment); library NNK3; higher = more nucleation; inactive = no reads after selection;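 also: zero at mode of non-aggregating sequences after 7 days selection at 30°C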

{"SUBSTANCE": "SHKNGFFSQETR", "amyloid nucleation score": "inactive"}
{"SUBSTANCE": "SFERGMSENLFIVGPGEFVG", "amyloid nucleation score": "inactive"}
{"SUBSTANCE": "LIDMFIFNARVSNGDFYCPN", "amyloid nucleation score": 0.718}
{"SUBSTANCE": "SRWTCLNFVWSTSQHLQWN", "amyloid nucleation score": "inactive"}
{"SUBSTANCE": "RSVTNGQSCLRTVGILSFLA", "amyloid nucleation score": "inactive"}
{"SUBSTANCE": "LLYENTVSSRGTVLRDHLS", "amyloid nucleation score": 0.456}
{"SUBSTANCE": "LNMHFENTIRGVPYTLVSGR", "amyloid nucleation score": "inactive"}
{"SUBSTANCE": "LRVYYYNMILDDFCVFVLEG", "amyloid nucleation score": 1.48}
{"SUBSTANCE": "YSVLLCVALRLVNNVA", "amyloid nucleation score": "inactive"}
{"SUBSTANCE": "WVCTYLTRFGRITGALRMDV", "amyloid nucleation score": "inactive"}
{"SUBSTANCE": "SMCPPLQRG", "amyloid nucleation score": "inactive"}
{"SUBSTANCE": "RVMRSDDVWMCSSLHDFCAV", "amyloid nucleation score": "inactive"}
{"SUBSTANCE": "HVIHGCNSIFYSVS", "amyloid nucleation score": "inactive"}
{"SUBSTANCE": "LGNRQVRNLATYPDNYLTCT", "amyloid nucleation score": "inactive"}
{"SUBSTANCE": "KYPNRKLF", "amyloid nucleation score": "inactive"}
{"SUBSTANCE": "LSRFQVGFHQIDIMRGDVWK", "amyloid nucleation score": "inactive"}
{"SUBSTANCE": "KLFGRCNSNSPIVGWIRCGL", "amyloid nucleation score": "inactive"}
{"SUBSTANCE": "FCEGYFWCVI", "amyloid nucleation score": "inactive"}
{"SUBSTANCE": "QKQFYGWVAESFARGATIPR", "amyloid nucleation score": 0.871}
{"SUBSTANCE": "VNCWTNYRYQGSDFIMSYIR", "amyloid nucleation score": "inactive"}
{"SUBSTANCE": "WISFFT", "amyloid nucleation score": "inactive"}
{"SUBSTANCE": "RYTIGFHLSMDSAYSISFYP", "amyloid nucleation score": "inactive"}
{"SUBSTANCE": "FNFNILTIWIDLLAQLGMT", "amyloid nucleation score": 1.85}

====

Assay: amyloid nucleation score (Sup35N fusion, yeast selection) (log enrichment); library NNK2; higher = more nucleation; inactive = no reads after selection
EXPERIMENTAL ENDPOINT: amyloid nucleation score

{"RECORD SEQUENCE": "YELNSLMKMSYAEQFPKTWA", "EXPERIMENTAL ENDPOINT": "amyloid nucleation score", "MEASURED VALUE": 0.447}
{"RECORD SEQUENCE": "YSISQLWYTLTIHVPFHPLK", "EXPERIMENTAL ENDPOINT": "amyloid nucleation score", "MEASURED VALUE": -0.114}
{"RECORD SEQUENCE": "PRGAPNVFDFTLNFSLKQVA", "EXPERIMENTAL ENDPOINT": "amyloid nucleation score", "MEASURED VALUE": -0.551}
{"RECORD SEQUENCE": "TYDYMKRDIMFTWLKRERKA", "EXPERIMENTAL ENDPOINT": "amyloid nucleation score", "MEASURED VALUE": 1.04}
{"RECORD SEQUENCE": "VWHLLRKSFSFR", "EXPERIMENTAL ENDPOINT": "amyloid nucleation score", "MEASURED VALUE": 0.619}
{"RECORD SEQUENCE": "DSFLTLTCGFRSNALYCWGV", "EXPERIMENTAL ENDPOINT": "amyloid nucleation score", "MEASURED VALUE": -0.663}
{"RECORD SEQUENCE": "YRTPYFIAIQDQRYCLVSLG", "EXPERIMENTAL ENDPOINT": "amyloid nucleation score", "MEASURED VALUE": -0.87}
{"RECORD SEQUENCE": "SNVSGCMELFNWVGYFPVSP", "EXPERIMENTAL ENDPOINT": "amyloid nucleation score", "MEASURED VALUE": -0.733}

====

Test: amyloid nucleation score (Sup35N fusion, yeast selection) (log enrichment); library NNK3; higher = more nucleation; inactive = no reads after selection
EXPERIMENTAL ENDPOINT: amyloid nucleation score

{"SUBSTANCE": "MWVGDKPSGSRRLVLGVRVT", "MEASURED VALUE": -0.258}
{"SUBSTANCE": "LCVFKWLILREYISITHDSI", "MEASURED VALUE": "inactive"}
{"SUBSTANCE": "FDYSIGL", "MEASURED VALUE": "inactive"}
{"SUBSTANCE": "CNHVSLTMILVRVLNMFF", "MEASURED VALUE": 0.968}
{"SUBSTANCE": "NSWRHKMMQMKSYHSNVCIW", "MEASURED VALUE": "inactive"}
{"SUBSTANCE": "IYSDHAL", "MEASURED VALUE": "inactive"}

====

Experiment: amyloid nucleation score (Sup35N fusion, yeast selection) (log enrichment); library NNK2; higher = more nucleation; inactive = no reads after selection

{"SUBSTANCE": "SLFLDDKEWMKGITKFLMDP", "amyloid nucleation score": 0.419}
{"SUBSTANCE": "LVDRPGFSVNVD", "amyloid nucleation score": -0.191}
{"SUBSTANCE": "SCYFLFGHDG", "amyloid nucleation score": -0.517}
{"SUBSTANCE": "YVLDFSNWIGDTADSIVAV", "amyloid nucleation score": 0.145}
{"SUBSTANCE": "SMSIWSFYIAP", "amyloid nucleation score": 4.59}
{"SUBSTANCE": "DTVNWCDSGVP", "amyloid nucleation score": -0.023}
{"SUBSTANCE": "TPTGSVLAYRVTISTKVVSL", "amyloid nucleation score": 1.09}
{"SUBSTANCE": "PRVPCTHHMPGW", "amyloid nucleation score": 0.027}
{"SUBSTANCE": "YYFDPS", "amyloid nucleation score": -0.961}
{"SUBSTANCE": "HLLQRLSRGHMSALKTRLSW", "amyloid nucleation score": 0.123}
{"SUBSTANCE": "SELLRTLGALSFYMYSFIKH", "amyloid nucleation score": -1.98}
{"SUBSTANCE": "PAFMSV", "amyloid nucleation score": -1.05}
{"SUBSTANCE": "IAYATPPSHGAC", "amyloid nucleation score": 1.32}
{"SUBSTANCE": "AWVWFS", "amyloid nucleation score": -0.845}
{"SUBSTANCE": "FVHVPPILGAAVTVRAASPK", "amyloid nucleation score": 0.284}
{"SUBSTANCE": "RLHKTSNITTWIAHPLHNR", "amyloid nucleation score": -0.038}
{"SUBSTANCE": "SSDNTQYTETRYSYGFLIKL", "amyloid nucleation score": 0.776}
{"SUBSTANCE": "CAPYTVLGYGLGTQFHAGEN", "amyloid nucleation score": 1.8}
{"SUBSTANCE": "SVQVMCQSWPLSPLFAPRHR", "amyloid nucleation score": 5.92}
{"SUBSTANCE": "NSPPVLLHMWRFRRRDTRRY", "amyloid nucleation score": -0.551}
{"SUBSTANCE": "FRVMQNFHQSYGHYKWVFHF", "amyloid nucleation score": 5.57}
{"SUBSTANCE": "ILKPDMWFKGARCDTNQLNC", "amyloid nucleation score": -0.62}
{"SUBSTANCE": "FVVESVKVNRSLACF", "amyloid nucleation score": -0.205}
{"SUBSTANCE": "SFIWSLMSLIEFPVLYKSVV", "amyloid nucleation score": 0.067}
{"SUBSTANCE": "YISVCSYCH", "amyloid nucleation score": 4.9}
{"SUBSTANCE": "KVQNWMLNTHGFYSLRGFDQ", "amyloid nucleation score": -0.857}
{"SUBSTANCE": "PVYPAAYWIVSDGGCNVSWE", "amyloid nucleation score": -0.789}
{"SUBSTANCE": "ANNVSGIIVCTNFDILMYGR", "amyloid nucleation score": 7.79}
{"SUBSTANCE": "VVNTVYSFSE", "amyloid nucleation score": 0.332}
{"SUBSTANCE": "FIICPSSDCNIRDIRRILTC", "amyloid nucleation score": -0.967}
{"SUBSTANCE": "PGLLQGLKSGWSKTYKLLTR", "amyloid nucleation score": 0.808}
{"SUBSTANCE": "YEVTRRVSWAFDRMYCRVNR", "amyloid nucleation score": 0.101}
{"SUBSTANCE": "MSSSVHLGIFITQCVKTRQL", "amyloid nucleation score": 2.25}
{"SUBSTANCE": "HIVVTKTWAGQRHVQFIM", "amyloid nucleation score": 1.07}
{"SUBSTANCE": "ALMEKSTSNLLFCHLDCASD", "amyloid nucleation score": 3.24}
{"SUBSTANCE": "LLWCEWKHG", "amyloid nucleation score": 4.58}
{"SUBSTANCE": "FAWNMLS", "amyloid nucleation score": 0.285}
{"SUBSTANCE": "NNVGWVLHDGRFFSVSHYIA", "amyloid nucleation score": 0.294}
{"SUBSTANCE": "GVVHKDELRGLKVRESSEMG", "amyloid nucleation score": 0.271}
{"SUBSTANCE": "NNMKVDAVVYIATKPGHWDQ", "amyloid nucleation score": 7.59}
{"SUBSTANCE": "WDGNYSSKVCFTQLRMSWCL", "amyloid nucleation score": 1.75}
{"SUBSTANCE": "RLVFVFITDG", "amyloid nucleation score": 2.96}
{"SUBSTANCE": "HYRDPFVKRLMKPVGRPATL", "amyloid nucleation score": 0.192}
{"SUBSTANCE": "LQCGRIV", "amyloid nucleation score": -0.204}
{"SUBSTANCE": "RLMQSVMCRRDLLL", "amyloid nucleation score": 0.883}
{"SUBSTANCE": "YRCSDLYK", "amyloid nucleation score": 2.47}
{"SUBSTANCE": "KYERYLNRFSLLLRTAMVHR", "amyloid nucleation score": -0.362}
{"SUBSTANCE": "NHRAIYF", "amyloid nucleation score": 0.205}
{"SUBSTANCE": "PRRSNTCWNSCISEMIGIRS", "amyloid nucleation score": 0.664}
{"SUBSTANCE": "ALWFLLKQSGARYLDLAIPG", "amyloid nucleation score": -0.06}
{"SUBSTANCE": "AFSMRVGDFEIHRFSVVFRR", "amyloid nucleation score": -0.247}
{"SUBSTANCE": "WGITGLVCV", "amyloid nucleation score": -0.674}
{"SUBSTANCE": "TAFNIVSCSGLCSYYQFRF", "amyloid nucleation score": 8.11}
{"SUBSTANCE": "VGRIEGHFYRSDCRQTYLYQ", "amyloid nucleation score": -0.785}
{"SUBSTANCE": "IMIMYFCCDMGRLGP", "amyloid nucleation score": 8.46}
{"SUBSTANCE": "TLFLSNFRFRCRFPDHALIS", "amyloid nucleation score": -1.3}
{"SUBSTANCE": "LKNRILPFSNHELIVAGLGL", "amyloid nucleation score": -0.388}
{"SUBSTANCE": "ACILSVYFS", "amyloid nucleation score": 2.12}
{"SUBSTANCE": "YNWVNTPGHVNL", "amyloid nucleation score": -1.4}
{"SUBSTANCE": "LQMLLHDQTEMFEYT", "amyloid nucleation score": -0.112}

Origin of values: the supplement of paper PMC12042874
